- assay name: Toxicokinetics in the 28-day study
- Assay type: in vivo, mice
- cond: male, CD1, mouse, in vivo, po, 80 mg/kg, male mice; 80 mg/kg; Day 28
measure name: Cmax (ng/mL)
Respond numerically; units are ng/mL and should not be typed.

**Q:** Reported Cmax, compound c1coc(CNc2ncnc3[nH]cnc23)c1 [MB-905, kinetin] : ____
**A:** 750

###

- assay name: Pharmacokinetics of MB-905 in plasma of the rat
- Assay type: in vivo
- cond: both sexes, Sprague Dawley, rat, plasma, iv, 3 mg/kg, 3 mg/kg (i.v.), read-out: Cmax
measure name: Cmax

**Q:** Entry under review: c1coc(CNc2ncnc3[nH]cnc23)c1 . Reported Cmax?
**A:** 99.4 ng/mL
